# Assay procedure: chemical genetic growth profiling, strain panel (AID 1159580);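 also: tested at 20 µM; growth read once vehicle control cultures reached saturation at 30 °C; 1 = growth at the plate median or of vehicle wells; lower values mean less growth of the strain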
# Condition: S. cerevisiae deletion strains, growth OD, locus YDR137W, strain rgp1
About 2,000 (36%) of roughly 5,500 compounds were called active. Inconclusive results (about 18%) are left out. Rule as the data show it: active = normalized growth mostly below about 0.91 (no sharp cut-off); inconclusive = no clear call, values can overlap the other calls; inactive = mostly above about 0.92. Some of the results follow.
Pick one: 1 (yes) (active), 0 (no) (inactive)

Name the outcome recorded for NCCC(=O)N[C@@H](Cc1cnc[nH]1)C(=O)O in the assay.
0 (no)

Each compound tested received a call. Report the one for C[C@@H]1CC[C@H]2[C@@H](C)C(O)O[C@@H]3O[C@@]4(C)CC[C@@H]1[C@]32OO4 (some centres not stated) .
1 (yes)

Please let me know the test result on file for C[C@@H]1CC[C@H]2[C@@H](C)C(=O)O[C@@H]3O[C@@]4(C)CC[C@@H]1[C@]32OO4 .
1 (yes)

Hi, sorry to bother you, what did the test record for C[C@@H]1C(=O)O[C@H]2[C@H]1CC[C@@]1(C)C=CC(=O)[C@@]3(C)O[C@@]213 ?
0 (no)

Which result was noted for this compound in the test: Nc1ccccc1C(=O)CC(N)C(=O)O (configuration not stated)
0 (no)

Outcome logged for CCC(C)C(=O)O[C@H]1[C@H](O)C2C(CN3CC(C)CCC3[C@@]2(C)O)C2C[C@]34O[C@]5(O)C(OC(=O)C(C)(O)CC)CC[C@@]3(C)C5C(OC(C)=O)[C@@H](OC(C)=O)C4[C@@]21O (some centres not stated) in this assay:
0 (no)

What is the recorded call for this compound in the test? C[C@@H]1OC(O[C@H]2C(O[C@H]3CC[C@@]4(C)C(CC[C@]5(C)C4CC=C4C6CC(C)(C)CC[C@]6(C(=O)O)CC[C@]45C)[C@]3(C)CO)OC[C@H](O)[C@@H]2O)[C@H](O)[C@H](O)[C@H]1O (some centres not stated)
1 (yes)

The measured values listed here are drawn from PubChem BioAssay AID1159580.
